# System: Escherichia coli TOP10
# measurement-description: shrunken log2 fold change of peptide-encoding DNA abundance (4.5 h post-induction vs induction); higher = less antimicrobial activity (less host growth inhibition)
# condition-summary: time post-induction: 4.5 h; library: site-saturation at positions 5, 18, 19, 20
Listing of recorded shrunken log2 fold change by entry.

Consider the reported shrunken log2 fold change for these sequences:
RRIRSRPPRLPRPRPRPDGSPRP ... -0.0196
RRIRKRPPRLPRPRPRPIHDPRP ... 0.00115
RRIRDRPPRLPRPRPRPVHIPRP ... -0.144

Answer with the recorded shrunken log2 fold change for the sequence listed here: RRIRWRPPRLPRPRPRPTSCPRP
0.581

Answer with the recorded shrunken log2 fold change for the sequence listed here: RRIRKRPPRLPRPRPRPRQDPRP
-0.0954

Answer with the recorded shrunken log2 fold change for the sequence listed here: RRIRFRPPRLPRPRPRPPTSPRP
0.403

Answer with the recorded shrunken log2 fold change for the sequence listed here: RRIRPRPPRLPRPRPRPWQKPRP
-0.179

Answer with the recorded shrunken log2 fold change for the sequence listed here: RRIRWRPPRLPRPRPRPMALPRP
-0.0125

* * *

# System: Escherichia coli TOP10
# measurement-description: shrunken log2 fold change of peptide-encoding DNA abundance (4.5 h post-induction vs induction); higher = less antimicrobial activity (less host growth inhibition)
# condition-summary: time post-induction: 4.5 h; library: site-saturation at positions 5, 18, 19, 20
Listing of recorded shrunken log2 fold change by entry.
Just the number, please, no unit after it.

RRIRNRPPRLPRPRPRPYHEPRP ... -0.342

We now examine a further sequence.
Give shrunken log2 fold change only, for RRIRLRPPRLPRPRPRPPICPRP , using Escherichia coli TOP10 data.
-0.0611

* * *

# System: Escherichia coli TOP10
# measurement-description: shrunken log2 fold change of peptide-encoding DNA abundance (4.5 h post-induction vs induction); higher = less antimicrobial activity (less host growth inhibition)
# condition-summary: time post-induction: 4.5 h; library: site-saturation at positions 5, 18, 19, 20
outcome-measure: shrunken log2 fold change
Just the number, please, no unit after it.

Consider the reported shrunken log2 fold change for these sequences:
RRIRDRPPRLPRPRPRPFQHPRP ... -0.202
RRIRVRPPRLPRPRPRPFIVPRP ... -0.285
RRIRARPPRLPRPRPRPLEAPRP ... 1.21
RRIRLRPPRLPRPRPRPLCHPRP ... -0.253
RRIRYRPPRLPRPRPRPTGMPRP ... 0.0495

Answer with the recorded shrunken log2 fold change for the sequence listed here: RRIRTRPPRLPRPRPRPKYGPRP
-0.0738

Answer with the recorded shrunken log2 fold change for the sequence listed here: RRIRDRPPRLPRPRPRPECLPRP
0.0572

Answer with the recorded shrunken log2 fold change for the sequence listed here: RRIRVRPPRLPRPRPRPCTEPRP
-0.167

Answer with the recorded shrunken log2 fold change for the sequence listed here: RRIRLRPPRLPRPRPRPKYPPRP
0.0464

Answer with the recorded shrunken log2 fold change for the sequence listed here: RRIRERPPRLPRPRPRPMCWPRP
0.451

* * *

Listing of recorded shrunken log2 fold change by entry.
# Test system: Escherichia coli TOP10
# measurement-description: shrunken log2 fold change of peptide-encoding DNA abundance (4.5 h post-induction vs induction); higher = less antimicrobial activity (less host growth inhibition)
# condition-summary: time post-induction: 4.5 h; library: site-saturation at positions 5, 18, 19, 20
Just the number, please, no unit after it.

Consider the reported shrunken log2 fold change for these sequences:
RRIRFRPPRLPRPRPRPWAYPRP ... -0.201
RRIRVRPPRLPRPRPRPGLRPRP ... 0.663
RRIRLRPPRLPRPRPRPPIAPRP ... 0.192
RRIRMRPPRLPRPRPRPVKYPRP ... 0.0631
RRIRERPPRLPRPRPRPPLTPRP ... -0.0766
RRIRGRPPRLPRPRPRPLSMPRP ... 1.34
RRIRARPPRLPRPRPRPEMFPRP ... 0.522
RRIRCRPPRLPRPRPRPKFLPRP ... -0.258

Give shrunken log2 fold change only, for RRIRPRPPRLPRPRPRPRIIPRP , using Escherichia coli TOP10 data.
-0.18

Give shrunken log2 fold change only, for RRIRLRPPRLPRPRPRPHKPPRP , using Escherichia coli TOP10 data.
0.119

Give shrunken log2 fold change only, for RRIRTRPPRLPRPRPRPRDMPRP , using Escherichia coli TOP10 data.
0.161

Give shrunken log2 fold change only, for RRIRSRPPRLPRPRPRPVTKPRP , using Escherichia coli TOP10 data.
-0.00403

Give shrunken log2 fold change only, for RRIRWRPPRLPRPRPRPDLDPRP , using Escherichia coli TOP10 data.
0.311

Give shrunken log2 fold change only, for RRIRARPPRLPRPRPRPHFCPRP , using Escherichia coli TOP10 data.
-0.105

Give shrunken log2 fold change only, for RRIRARPPRLPRPRPRPKYLPRP , using Escherichia coli TOP10 data.
-0.299

Give shrunken log2 fold change only, for RRIRLRPPRLPRPRPRPRTRPRP , using Escherichia coli TOP10 data.
0.519

Give shrunken log2 fold change only, for RRIRIRPPRLPRPRPRPADIPRP , using Escherichia coli TOP10 data.
0.00782

* * *

# Test system: Escherichia coli TOP10
# measurement-description: shrunken log2 fold change of peptide-encoding DNA abundance (4.5 h post-induction vs induction); higher = less antimicrobial activity (less host growth inhibition)
# condition-summary: time post-induction: 4.5 h; library: site-saturation at positions 5, 18, 19, 20
outcome-measure: shrunken log2 fold change
Just the number, please, no unit after it.

Consider the reported shrunken log2 fold change for these sequences:
RRIRRRPPRLPRPRPRPTMRPRP ... 0.667
RRIRPRPPRLPRPRPRPGFHPRP ... -0.0164
RRIRVRPPRLPRPRPRPNKQPRP ... 0.0173

We now examine a further sequence.
Answer with the recorded shrunken log2 fold change for the sequence listed here: RRIRVRPPRLPRPRPRPDHWPRP
0.152

* * *

# Tested on: Escherichia coli TOP10
# measurement-description: shrunken log2 fold change of peptide-encoding DNA abundance (4.5 h post-induction vs induction); higher = less antimicrobial activity (less host growth inhibition)
# condition-summary: time post-induction: 4.5 h; library: site-saturation at positions 5, 18, 19, 20
Where shrunken log2 fold change equals or exceeds 0.2, the correct label is 1.0; where it does not, the label is 0.0.

Known results for sequences:
RRIRGRPPRLPRPRPRPRQGPRP ... 1.0
RRIRTRPPRLPRPRPRPDCMPRP ... 0.0
RRIRSRPPRLPRPRPRPYSFPRP ... 0.0
RRIRVRPPRLPRPRPRPLPKPRP ... 1.0
RRIRDRPPRLPRPRPRPQSKPRP ... 0.0

Does the sequence RRIRARPPRLPRPRPRPDCDPRP have recorded shrunken log2 fold change that is 0.2 or more?
1.0

Does the sequence RRIRVRPPRLPRPRPRPPIYPRP have recorded shrunken log2 fold change that is 0.2 or more?
0.0

Does the sequence RRIRNRPPRLPRPRPRPMLTPRP have recorded shrunken log2 fold change that is 0.2 or more?
0.0

* * *

# Test system: Escherichia coli TOP10
# measurement-description: shrunken log2 fold change of peptide-encoding DNA abundance (4.5 h post-induction vs induction); higher = less antimicrobial activity (less host growth inhibition)
# condition-summary: time post-induction: 4.5 h; library: site-saturation at positions 5, 18, 19, 20
Where shrunken log2 fold change equals or exceeds -0.003, the correct label is Fulfilled; where it does not, the label is Not fulfilled.

Does the sequence RRIRHRPPRLPRPRPRPAGQPRP have recorded shrunken log2 fold change that is -0.003 or more?
Fulfilled

Does the sequence RRIRYRPPRLPRPRPRPSLDPRP have recorded shrunken log2 fold change that is -0.003 or more?
Not fulfilled

Does the sequence RRIRRRPPRLPRPRPRPKTGPRP have recorded shrunken log2 fold change that is -0.003 or more?
Fulfilled

Does the sequence RRIRSRPPRLPRPRPRPRFFPRP have recorded shrunken log2 fold change that is -0.003 or more?
Fulfilled

Does the sequence RRIRCRPPRLPRPRPRPEKFPRP have recorded shrunken log2 fold change that is -0.003 or more?
Fulfilled

Does the sequence RRIRNRPPRLPRPRPRPFFSPRP have recorded shrunken log2 fold change that is -0.003 or more?
Not fulfilled

Does the sequence RRIRIRPPRLPRPRPRPHYTPRP have recorded shrunken log2 fold change that is -0.003 or more?
Not fulfilled

Does the sequence RRIRNRPPRLPRPRPRPVSTPRP have recorded shrunken log2 fold change that is -0.003 or more?
Not fulfilled

Does the sequence RRIRERPPRLPRPRPRPKEMPRP have recorded shrunken log2 fold change that is -0.003 or more?
Not fulfilled

* * *

# System: Escherichia coli TOP10;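 note: peptides expressed intracellularly from a pBAD plasmid library in pooled LB shake-flask culture, induced with 0.3% L-arabinose, DNA abundance read by NGS, three biological replicates, DESeq2 with apeglm shrinkage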
# measurement-description: shrunken log2 fold change of peptide-encoding DNA abundance (4.5 h post-induction vs induction); higher = less antimicrobial activity (less host growth inhibition)
# condition-summary: time post-induction: 4.5 h; library: site-saturation at positions 5, 18, 19, 20
So basically, the class depends on measured shrunken log2 fold change, and the ranges are bin A: < -0.08; bin B: ≥ -0.08 and < 0.1; bin C: ≥ 0.1

Known results for sequences:
RRIRKRPPRLPRPRPRPPVSPRP ... bin B
RRIRWRPPRLPRPRPRPQSKPRP ... bin B

Lab note: sort RRIRVRPPRLPRPRPRPGAVPRP into the matching shrunken log2 fold change band.
bin C

Lab note: sort RRIRRRPPRLPRPRPRPQIWPRP into the matching shrunken log2 fold change band.
bin C
